Test system: CCRF-CEM leukemia
protocol_details: NCI-60 one-dose screen, 48 h (100 = growth as untreated, 0 = no growth, -100 = all killed)
cond: 10 µM unless noted
About 83,000 compounds went through this panel and 20% of them were active in at least one assay; those are over-represented in the sample as a whole. Activity calls are given as the source filed them. How the source made its calls: active means growth percent below 10; inactive means the rest.
The entries below are paired with their reported growth.
readout_type: growth

>>> result("Cc1noc(C)c1-c1cc(O)cc(C(O)c2ccccc2)c1 (centres undefined)")
"46.7% (inactive)"
>>> result("COc1ccc(C/C(C)=C(\\c2ccc(Cl)cc2)c2ccc(OCCN3CCCCCC3)cc2)cc1")
"61.6% (inactive)"
>>> result("O=C1CC(c2nc3ccccc3s2)CN1C1CCCCC1 (centres undefined)")
"100% (inactive)"
>>> result("CC(C)CC(CC1=CCC2CC1C2(C)C)C1=C(O)C(C)(C)C(=O)C(C)(C)C1=O (centres undefined)")
"1.78% (active)"
>>> result("CCN(CC)CCCC(C)N/C(=C1\\C(=O)NC(=O)\\C1=C(/NC(C)CCCN(CC)CC)c1cccc(OC)c1)c1cccc(OC)c1 (centres undefined)")
"-28.1% (active)"
>>> result("O=[N+]([O-])c1cccc(-c2nc3sccn3c2-c2ccnc(NCCCNS(=O)(=O)c3cccc(F)c3)n2)c1")
"3.04% (active)"
>>> result("CCCCCCCCCCCCN1CCCC(C)C1 (centres undefined)")
"44.7% (inactive)"
>>> result("COc1cccc2c1C(=O)c1c(O)c3c(c(O)c1C2=O)C[C@@](O)(/C(C)=N/NC(=O)c1ccc(Cl)cc1)C[C@@H]3OC1CC(N)C(O)C(C)O1 (some centres undefined)")
"-10.8% (active)"
>>> result("NC1=CC(=O)C(=O)c2ccccc21")
"93% (inactive)"
>>> result("CCOc1ccc(Nc2nc(-c3c(C)nc4ncccn34)cs2)cc1")
"-4.93% (active)"
>>> result("Cc1ccc(S(=O)(=O)n2cc(-c3csc(-c4cn(C)c5ncccc45)n3)c3ccccc32)cc1")
"37.4% (inactive)"
>>> result("Cn1cc(-c2nc(-c3c[nH]c4ccccc34)cs2)c2cccnc21")
"7.02% (active)"
>>> result("CC/C=C\\C[C@H](O)C/C=C1/C(=O)C=C[C@@H]1C/C=C\\CCCC(N)=O")
"-4.33% (active)"
>>> result("CC1(C)CC(C(=O)OCCCCCCCCCCC[P+](c2ccccc2)(c2ccccc2)c2ccccc2)C(C)(C)N1O (centres undefined)")
"-32.8% (active)"
